- Experimental Target: UniProt:O60674
- Sequence (O60674 whole entry): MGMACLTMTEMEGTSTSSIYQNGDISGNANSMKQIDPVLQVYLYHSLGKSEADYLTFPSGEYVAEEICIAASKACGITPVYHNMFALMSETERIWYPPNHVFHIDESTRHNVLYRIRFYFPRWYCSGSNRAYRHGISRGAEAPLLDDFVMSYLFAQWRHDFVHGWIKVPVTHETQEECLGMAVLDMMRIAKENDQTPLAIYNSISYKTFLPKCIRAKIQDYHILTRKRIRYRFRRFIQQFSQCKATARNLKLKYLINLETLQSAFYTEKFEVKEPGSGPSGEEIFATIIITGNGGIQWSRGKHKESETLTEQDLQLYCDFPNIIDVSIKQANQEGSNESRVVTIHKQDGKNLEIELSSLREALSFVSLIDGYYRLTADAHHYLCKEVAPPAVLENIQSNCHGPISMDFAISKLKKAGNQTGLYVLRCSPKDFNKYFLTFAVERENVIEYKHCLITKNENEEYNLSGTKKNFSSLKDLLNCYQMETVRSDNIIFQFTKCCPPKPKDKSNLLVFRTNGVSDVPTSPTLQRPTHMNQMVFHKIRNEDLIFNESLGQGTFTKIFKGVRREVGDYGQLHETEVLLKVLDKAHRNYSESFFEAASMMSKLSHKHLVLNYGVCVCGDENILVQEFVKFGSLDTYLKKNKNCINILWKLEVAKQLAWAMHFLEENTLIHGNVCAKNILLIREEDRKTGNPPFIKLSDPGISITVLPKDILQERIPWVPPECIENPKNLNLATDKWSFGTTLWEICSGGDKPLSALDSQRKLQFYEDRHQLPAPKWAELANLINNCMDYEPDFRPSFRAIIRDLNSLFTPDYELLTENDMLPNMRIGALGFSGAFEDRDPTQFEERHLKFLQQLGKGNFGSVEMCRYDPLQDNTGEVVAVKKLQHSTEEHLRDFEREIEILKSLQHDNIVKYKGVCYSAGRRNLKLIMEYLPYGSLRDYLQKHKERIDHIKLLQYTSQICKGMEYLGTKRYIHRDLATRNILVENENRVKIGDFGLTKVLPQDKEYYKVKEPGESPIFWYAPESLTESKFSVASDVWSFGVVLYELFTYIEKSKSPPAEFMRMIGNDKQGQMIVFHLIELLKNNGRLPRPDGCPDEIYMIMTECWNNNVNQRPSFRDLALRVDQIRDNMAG
- Assay Summary: HotSpot radiometric kinase assay, purified recombinant human kinase, 10-dose IC50
- Type: biochemical
Endpoint: IC50
I'd appreciate it if you wrote the number followed by its unit.

Challenge: # returns recorded IC50 (system: UniProt:O60674) for N#C/C(=N\Nc1ccc(C(F)(F)F)cc1)S(=O)(=O)c1cccs1 [SC09]
Response given: 8.88 µM

* * *

- Experimental Target: TYK2 (Homo sapiens, UniProt P29597)
- Sequence (P29597 whole entry): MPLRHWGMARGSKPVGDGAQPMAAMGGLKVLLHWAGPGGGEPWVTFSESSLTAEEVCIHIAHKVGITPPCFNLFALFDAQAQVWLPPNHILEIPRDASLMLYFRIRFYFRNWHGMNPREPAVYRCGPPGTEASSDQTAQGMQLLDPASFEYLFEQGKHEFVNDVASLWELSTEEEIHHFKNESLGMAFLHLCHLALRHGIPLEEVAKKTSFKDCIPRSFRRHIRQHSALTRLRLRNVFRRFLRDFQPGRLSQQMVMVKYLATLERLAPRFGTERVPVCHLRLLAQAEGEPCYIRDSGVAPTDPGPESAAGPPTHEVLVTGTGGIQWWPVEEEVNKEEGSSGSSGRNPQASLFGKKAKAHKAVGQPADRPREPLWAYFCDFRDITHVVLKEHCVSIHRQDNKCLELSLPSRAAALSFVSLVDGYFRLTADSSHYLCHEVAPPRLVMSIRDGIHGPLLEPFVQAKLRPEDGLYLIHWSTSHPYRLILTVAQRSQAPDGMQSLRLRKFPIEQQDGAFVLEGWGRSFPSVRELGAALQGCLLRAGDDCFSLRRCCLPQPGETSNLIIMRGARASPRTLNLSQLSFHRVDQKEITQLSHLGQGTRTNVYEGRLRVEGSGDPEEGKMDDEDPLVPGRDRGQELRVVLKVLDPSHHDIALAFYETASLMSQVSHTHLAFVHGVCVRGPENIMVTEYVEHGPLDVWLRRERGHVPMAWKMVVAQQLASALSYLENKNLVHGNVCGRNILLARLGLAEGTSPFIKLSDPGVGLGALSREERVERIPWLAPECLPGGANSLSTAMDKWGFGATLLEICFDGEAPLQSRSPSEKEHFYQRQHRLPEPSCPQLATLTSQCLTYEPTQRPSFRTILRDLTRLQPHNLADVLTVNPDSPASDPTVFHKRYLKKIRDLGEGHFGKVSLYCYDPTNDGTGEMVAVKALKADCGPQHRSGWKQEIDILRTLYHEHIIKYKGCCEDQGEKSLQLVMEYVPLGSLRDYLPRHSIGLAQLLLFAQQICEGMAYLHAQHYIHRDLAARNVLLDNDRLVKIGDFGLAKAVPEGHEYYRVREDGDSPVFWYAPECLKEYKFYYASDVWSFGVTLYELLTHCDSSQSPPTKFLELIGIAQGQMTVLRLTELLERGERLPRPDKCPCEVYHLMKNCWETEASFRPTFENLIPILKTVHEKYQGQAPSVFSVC
- Assay Summary: HotSpot radiometric kinase assay, purified recombinant human kinase, 10-dose IC50
Endpoint: IC50 (µM)
Quick reminder: number only, in µM, skip the unit.

Challenge: Endpoint output: IC50 of N#C/C(=N\Nc1ccc(C(F)(F)F)cc1)S(=O)(=O)c1cccs1 . Value?
Response given: 111

* * *

- Experimental Target: JAK3 (Homo sapiens, UniProt P52333)
- Sequence (P52333 1-1124): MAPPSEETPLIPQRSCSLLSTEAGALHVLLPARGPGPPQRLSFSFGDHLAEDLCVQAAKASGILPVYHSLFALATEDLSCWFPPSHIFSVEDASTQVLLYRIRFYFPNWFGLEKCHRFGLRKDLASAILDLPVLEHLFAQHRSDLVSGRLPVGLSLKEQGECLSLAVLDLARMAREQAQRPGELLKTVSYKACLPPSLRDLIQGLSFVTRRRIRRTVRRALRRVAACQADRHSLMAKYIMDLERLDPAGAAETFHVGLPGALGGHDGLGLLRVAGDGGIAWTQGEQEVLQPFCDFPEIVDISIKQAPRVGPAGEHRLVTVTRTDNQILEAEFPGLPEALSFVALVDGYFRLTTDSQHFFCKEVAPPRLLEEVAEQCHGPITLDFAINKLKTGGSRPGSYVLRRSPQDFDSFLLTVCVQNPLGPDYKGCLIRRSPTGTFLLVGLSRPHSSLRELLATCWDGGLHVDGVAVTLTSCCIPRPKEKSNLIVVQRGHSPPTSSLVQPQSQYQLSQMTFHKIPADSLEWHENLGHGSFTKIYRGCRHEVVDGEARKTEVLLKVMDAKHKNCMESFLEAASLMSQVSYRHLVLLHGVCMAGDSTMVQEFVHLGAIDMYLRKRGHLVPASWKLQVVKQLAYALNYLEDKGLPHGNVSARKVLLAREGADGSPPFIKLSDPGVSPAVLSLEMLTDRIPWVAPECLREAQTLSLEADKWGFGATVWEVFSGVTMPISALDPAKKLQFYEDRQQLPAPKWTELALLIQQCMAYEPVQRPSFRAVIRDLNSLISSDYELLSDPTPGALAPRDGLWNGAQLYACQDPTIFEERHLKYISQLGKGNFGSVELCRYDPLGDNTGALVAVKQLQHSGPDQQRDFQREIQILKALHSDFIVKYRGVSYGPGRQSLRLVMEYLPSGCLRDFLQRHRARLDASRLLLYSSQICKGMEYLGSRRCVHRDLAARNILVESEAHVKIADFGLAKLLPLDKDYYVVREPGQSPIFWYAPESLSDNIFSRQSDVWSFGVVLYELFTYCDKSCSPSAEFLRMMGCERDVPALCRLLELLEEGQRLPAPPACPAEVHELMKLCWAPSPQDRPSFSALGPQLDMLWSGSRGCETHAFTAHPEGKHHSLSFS
- Assay Summary: HotSpot radiometric kinase assay, purified recombinant human kinase, 10-dose IC50
- Type: biochemical
Endpoint: IC50 (µM)
Quick reminder: number only, in µM, skip the unit.

Challenge: Endpoint output: IC50 of N#C/C(=N\Nc1ccc(C(F)(F)F)cc1)S(=O)(=O)c1cccs1 [SC09] . Value?
Response given: 139

Cited source: paper PMC5342759
